# SYSTEM UNDER TEST: recombinant human FLAP protein (Homo sapiens)
# Construct: made in house; host or cells: Sf9 insect cells (100,000×g membrane pellet used)
# Sequence (P20292 whole entry): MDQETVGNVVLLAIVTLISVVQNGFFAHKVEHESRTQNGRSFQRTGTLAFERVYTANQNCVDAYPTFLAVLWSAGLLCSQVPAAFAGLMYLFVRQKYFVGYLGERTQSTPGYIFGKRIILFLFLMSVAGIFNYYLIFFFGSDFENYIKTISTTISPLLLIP
# MEASUREMENT NOTES: FLAP binding assay (SPA, displacement of [125I]L-691,831)
# TEST CONDITIONS: membranes of sf9 cells expressing recombinant human FLAP; [125I]L-691,831 probe; read-out: FLAP binding IC50
READOUT: pIC50
# log scale: pIC50 equals minus log10 of the concentration in mol/L

CNc1ccc(-c2ccc(C(C)(c3noc(-c4cnn(CC(=O)N(C)C)c4)n3)C3CC3)cc2)cn1 (centres unmarked) : 8.04
CC(C)C(C)(c1ccc(-c2cnc(N)nc2)cc1)c1noc(-c2cnn(C3COC3)c2)n1 (centres unmarked) : 8.70
CC(C)C(C)(c1ccc(-c2cnc(N)nc2)cc1)c1noc(-c2cnc(=O)[nH]c2)n1 (centres unmarked) : 8.48
CN(C)C(=O)Cn1cc(-c2nc(C(C)(c3ccc(-c4cnc(N)c(F)c4)cc3)C3CC3)no2)cn1 (centres unmarked) : 7.92
CC(c1ccc(-c2cnc(N)nc2)cc1)(c1noc(N2CCCC2)n1)C1CC1 (centres unmarked) : 7.89
CN(C)C(=O)Cn1cc(-c2nc([C@](C)(c3ccc(-c4cnc(N)nc4)cc3)C3CCC3)no2)cn1 : 6.31

Reported pIC50, molecule CC(C)C(C)(c1ccc(-c2cnc(N)nc2)cc1)c1noc(C2CCN(C)CC2)n1 (centres unmarked) : ____
6.48

Another molecule to look at: COCCn1cc(-c2nc([C@@](C)(c3ccc(-c4cnc(N)nc4)cc3)C3CC3)no2)cn1
8.62
